hey, just use true if measured melting point is less than 200 °C, otherwise false

{"columns": ["Compound", "Class Assignment"],
 "data": [
  ["CC(=O)c1ccc(S(=O)(=O)NCc2ccc(Cn3ccnc(NC4CCN(C/C(C)=C/c5ccccc5)CC4)c3=O)cc2)cc1 [1-165]", "true"],
  ["C/C(=C\\c1ccccc1)CN1CCC(Nc2nccn(Cc3ccc(OC(F)(F)F)cc3)c2=O)CC1 [3-15]", "true"],
  ["C/C(=C\\c1ccccc1)CN1CCC(Nc2nccn(Cc3ccc(CN)cc3)c2=O)CC1 [1-6]", "false"],
  ["C/C(=C\\c1ccccc1)CN1CCC(Nc2nccn(Cc3cc(C)on3)c2=O)CC1 [6-3]", "true"],
  ["C/C(=C\\c1ccccc1)CN1CCC(Nc2nccn(-c3ccsc3)c2=O)CC1 [6-4]", "false"],
  ["C/C(=C\\c1ccccc1)CN1CCC(Nc2nccn(CC(=O)N3CCCCC3)c2=O)CC1 [2-5]", "true"],
  ["C/C(=C\\c1ccccc1)CN1CCC(Nc2nccn(Cc3ccc(CNC(=O)c4ccco4)cc3)c2=O)CC1 [1-152]", "true"]
]}
